subject_of_test: A2B receptors (Homo sapiens, UniProt P29275)
Sequence (P29275 whole entry): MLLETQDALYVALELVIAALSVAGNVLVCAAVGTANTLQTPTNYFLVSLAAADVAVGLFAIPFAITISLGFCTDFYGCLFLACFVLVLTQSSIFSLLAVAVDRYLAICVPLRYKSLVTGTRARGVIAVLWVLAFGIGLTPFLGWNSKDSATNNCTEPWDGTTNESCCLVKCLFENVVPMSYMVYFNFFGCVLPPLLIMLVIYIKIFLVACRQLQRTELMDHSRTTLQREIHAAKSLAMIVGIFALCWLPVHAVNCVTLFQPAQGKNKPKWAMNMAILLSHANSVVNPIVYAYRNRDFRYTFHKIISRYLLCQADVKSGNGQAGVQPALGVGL
test_details: functional cAMP (HTRF) assay, recombinant HEK293 cells expressing human A2B receptor, agonist NECA
pIC50: −log10 of the molar value.
reported_metric: pIC50

Below: 5 compounds and their reported pIC50.
INSERT INTO results (compound, reported_metric, reported) VALUES
  ('COc1ccc(-c2ccc(F)cc2)c2nc(NC(=O)c3cnn(C)c3)[nH]c12', 'pIC50', '> 8.00'),
  ('COCCn1cc(C(=O)Nc2nc3c(-c4ccc5cc[nH]c5c4)ccc(OC)c3[nH]2)cn1', 'pIC50', '> 7.00'),
  ('COc1ccc(C2CCOCC2)c2nc(NC(=O)c3ccc(CN(C)C)cc3)[nH]c12', 'pIC50', '< 6.00'),
  ('COc1ccc(-c2cnn(C)c2)c2nc(NC(=O)c3ccnc(N4CCC(C)(O)C4)c3)[nH]c12 (centres unmarked)', 'pIC50', '< 6.00'),
  ('C#CCC1(O)CCN(C(=O)Nc2nc3c(C4CCOCC4)ccc(OC)c3[nH]2)CC1', 'pIC50', '< 6.00');

Given the entry `COc1ccc(-c2cnn(Cc3cccnc3)c2)c2[nH]c(NC(=O)N3CCC(C)(O)CC3)nc12` , report its measured pIC50.
> 7.00

Given the entry `COc1ccc(-c2ccccc2)c2[nH]c(NC(=O)c3ccc(C(=O)N4CCOCC4)cc3)nc12` , report its measured pIC50.
> 8.00

###

test_details: pharmacokinetic properties in mouse after single intravenous and oral administration
Type: in vivo
assay_setup: female, plasma, 0.2 mg/kg, PK data in mouse
reported_metric: half-life (min)

(I) COc1ccc(N2CCOCC2)c2nc(NC(=O)N3CCC(C)(O)CC3)[nH]c12 [compound 21]
(II) COc1ccc(C2CCOCC2)c2nc(NC(=O)c3ccc(CN4CCCC4=O)cc3)[nH]c12 [compound 138]
(III) COc1ccc(N2CCOCC2)c2nc(NC(=O)c3ccnc(N4CCOCC4)c3)[nH]c12 [compound 23]
Output the listed items in decreasing order of half-life. The reply should contain the labels ordered as requested.
III, I, II
(III: 103 min, I: 50.3 min, II: 32.3 min)

(I) COc1ccc(C2CCOCC2)c2nc(NC(=O)c3ccc(C(=O)N(C)C)cc3)[nH]c12 [compound 133]
(II) COc1ccc(N2CCOCC2)c2nc(NC(=O)c3cnn(C)c3)[nH]c12 [compound 136]
Exercise: compare I and II ; which one has the greater half-life? Give the label of your selection.
II

###

test_details: pharmacokinetic properties in mouse after single intravenous and oral administration
Type: in vivo
assay_setup: female, plasma, 0.2 mg/kg, PK data in mouse
reported_metric: clearance (mL/min/kg)

INSERT INTO assay_data (mol_smiles, reported_metric, reported) VALUES
  ('COc1ccc(-c2ccccc2)c2nc(NC(=O)N3CCC(C)(O)CC3)[nH]c12', 'clearance', 11.4),
  ('COc1ccc(-c2cnn(C)c2)c2nc(NC(=O)c3ccc(C(=O)N(C)C)cc3)[nH]c12', 'clearance', 6.77),
  ('COc1ccc(N2CCOCC2)c2nc(NC(=O)c3ccnc(N4CCOCC4)c3)[nH]c12', 'clearance', 10.3),
  ('COc1ccc(-c2cnn(C)c2)c2nc(NC(=O)N3CCC(C)(O)CC3)[nH]c12', 'clearance', 19.5),
  ('COc1ccc(-c2cnn(C)c2)c2nc(NC(=O)N3CC[C@@]4(CCOC4)C3)[nH]c12', 'clearance', 12.3);

(I) COc1ccc(N2CCOCC2)c2nc(NC(=O)N3CCC(C)(O)CC3)[nH]c12
(II) COc1ccc(N2CCOCC2)c2nc(NC(=O)c3cnn(C)c3)[nH]c12
(III) C#CCC1(O)CCN(C(=O)Nc2nc3c(-c4cnn(C)c4)ccc(OC)c3[nH]2)CC1
Reorder: clearance, max to min. The reply should contain the labels ordered as requested.
III, I, II

(I) COc1ccc(C2CCOCC2)c2nc(NC(=O)c3ccc(Cn4ccnc4)cc3)[nH]c12
(II) COc1ccc(C2CCOCC2)c2nc(NC(=O)c3ccc(CN4CCCC4=O)cc3)[nH]c12
Exercise: compare I and II ; which one has the greater clearance? Give the label of your selection.
II

(P) COc1ccc(C2CCOCC2)c2nc(NC(=O)c3ccc(C(=O)N(C)C)cc3)[nH]c12
(Q) COc1ccc(-c2cnn(C)c2)c2nc(NC(=O)c3ccnc(N4CC[C@@](C)(O)C4)c3)[nH]c12
Given P and given Q , which shows the smaller recorded clearance? Give the label of your selection.
P
(P: 12.7 mL/min/kg, Q: 31.7 mL/min/kg)

###

Listed here are compounds together with their documented IC50.
subject_of_test: human A1 receptor (Homo sapiens, UniProt P30542)
Sequence (P30542 1-326): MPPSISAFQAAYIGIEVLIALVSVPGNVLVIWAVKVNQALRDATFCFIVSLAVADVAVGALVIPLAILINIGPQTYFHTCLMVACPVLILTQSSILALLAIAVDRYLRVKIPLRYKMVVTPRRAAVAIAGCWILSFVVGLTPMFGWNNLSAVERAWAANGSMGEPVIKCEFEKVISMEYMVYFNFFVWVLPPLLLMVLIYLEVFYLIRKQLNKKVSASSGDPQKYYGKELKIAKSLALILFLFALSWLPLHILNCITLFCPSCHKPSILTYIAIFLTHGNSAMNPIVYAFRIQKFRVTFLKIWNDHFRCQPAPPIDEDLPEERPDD
test_details: functional cAMP (HTRF) assay, recombinant CHO cells expressing human A1 receptor, forskolin, agonist CPA

Below: 5 compounds and their reported IC50.
INSERT INTO assay_data (mol_smiles, subject_of_test, reported) VALUES
  ('COc1ccc(C2CCOCC2)c2nc(NC(=O)c3cnc(C)o3)[nH]c12', 'human A1 receptor (Homo sapiens, UniProt P30542)', '> 1000 nM'),
  ('COc1ccc(C2CCOCC2)c2nc(NC(=O)c3cnn(C)c3)[nH]c12', 'human A1 receptor (Homo sapiens, UniProt P30542)', '> 1000 nM'),
  ('COc1ccc(-c2ccccc2)c2nc(NC(=O)c3ccc(CCl)cc3)[nH]c12', 'human A1 receptor (Homo sapiens, UniProt P30542)', '> 1000 nM'),
  ('COc1ccc(-c2cnn(C)c2)c2nc(NC(=O)c3ccc4ocnc4c3)[nH]c12', 'human A1 receptor (Homo sapiens, UniProt P30542)', '> 1000 nM'),
  ('COc1cc(F)c(C2=CCOCC2)c2nc(NC(=O)c3ccc(C(=O)N(C)C)cc3)[nH]c12', 'human A1 receptor (Homo sapiens, UniProt P30542)', '> 1000 nM');

Given the entry `COc1ccc(-c2cnn(C)c2)c2nc(NC(=O)c3ccc(C(=O)N(C)C)cc3)[nH]c12` , report its measured IC50.
> 1000 nM

Given the entry `COc1ccc(-c2ccc3c(cnn3C)c2)c2nc(NC(=O)N3CCC(C)(O)CC3)[nH]c12` , report its measured IC50.
> 1000 nM

###

subject_of_test: human A2A receptor (Homo sapiens)
Sequence (P29274 whole entry): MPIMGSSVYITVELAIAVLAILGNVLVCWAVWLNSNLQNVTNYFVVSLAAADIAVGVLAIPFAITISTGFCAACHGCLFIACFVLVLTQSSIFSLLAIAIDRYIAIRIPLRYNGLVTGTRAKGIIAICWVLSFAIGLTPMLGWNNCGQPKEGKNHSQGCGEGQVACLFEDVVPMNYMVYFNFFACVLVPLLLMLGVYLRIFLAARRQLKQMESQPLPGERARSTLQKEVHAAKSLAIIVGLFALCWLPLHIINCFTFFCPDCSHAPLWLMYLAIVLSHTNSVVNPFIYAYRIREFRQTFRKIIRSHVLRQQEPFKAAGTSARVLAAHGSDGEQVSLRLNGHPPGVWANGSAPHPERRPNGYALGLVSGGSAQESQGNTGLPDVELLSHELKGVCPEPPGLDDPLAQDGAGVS
test_details: functional cAMP (HTRF) assay, recombinant HEK293 cells expressing human A2A receptor, agonist NECA
reported_metric: IC50

INSERT INTO assay_data (compound, subject_of_test, reported_metric, reported) VALUES
  ('COc1ccc(-c2ccccc2)c2nc(NC(=O)c3c[nH]cn3)[nH]c12', 'human A2A receptor (Homo sapiens)', 'IC50', '< 0.01 µM'),
  ('COCCC1CCN(C(=O)Nc2nc3c(-c4cnn(C)c4)ccc(OC)c3[nH]2)C1 (centres unmarked)', 'human A2A receptor (Homo sapiens)', 'IC50', '< 0.1 µM'),
  ('COc1ccc(-c2ccccc2)c2nc(NC(=O)c3ccc(N4C(=O)CCC4=O)cc3)[nH]c12', 'human A2A receptor (Homo sapiens)', 'IC50', '< 0.1 µM');

Given the entry `COc1ccc(-c2cnn(C)c2)c2nc(NC(=O)c3cnc(C)o3)[nH]c12` , report its measured IC50.
< 0.01 µM

Given the entry `COc1ccc(-c2cnn(C)c2)c2nc(NC(=O)N3CC[C@@]4(CCCOC4)C3)[nH]c12` , report its measured IC50.
< 0.01 µM

Given the entry `COc1ccc(-c2ccccc2)c2nc(NC(=O)c3ccc(CN4CCCC4=O)cc3)[nH]c12` , report its measured IC50.
< 0.1 µM

Given the entry `COc1ccc(-c2ccccc2)c2nc(NC(=O)c3cnc4cccnn34)[nH]c12` , report its measured IC50.
< 0.1 µM

Given the entry `COc1ccc(-c2cnn(C)c2)c2nc(NC(=O)c3ccc(C(=O)N(C)C)nc3)[nH]c12` , report its measured IC50.
< 0.1 µM

Given the entry `COc1ccc(-c2cnn(C)c2)c2nc(NC(=O)c3ccc(CN4CCN(C)CC4)cc3)[nH]c12` , report its measured IC50.
< 0.01 µM

Given the entry `COc1ccc(C2=CCOCC2)c2nc(NC(=O)C3CC3)[nH]c12` , report its measured IC50.
< 0.1 µM

Given the entry `CCCNC(=O)c1ccc(C(=O)Nc2nc3c(OC)ccc(-c4ccccc4)c3[nH]2)cc1` , report its measured IC50.
< 0.1 µM
